- Test system: NCI-H522 lung
- protocol-notes: NCI-60 one-dose screen, 48 h (100 = growth as untreated, 0 = no growth, -100 = all killed)
- settings: 10 µM unless noted
About 83,000 compounds went through this panel and 20% of them were active in at least one assay; those are over-represented in the sample as a whole. Calls of active or inactive are those of the source. The calls were made as follows: active = growth percent below 10; inactive = the rest.

{"compound": "COc1ccc2c(c1)c(-c1cc(-c3cn(C)c4ccc(OC)cc34)on1)cn2C", "growth": "90.2% (inactive)"}
{"compound": "Nc1c(C(=O)O)cc(Cl)cc1[N+](=O)[O-]", "growth": "98.4% (inactive)"}
{"compound": "COc1ccc(C2=NN(C(=O)c3cc(OC)c(OC)c(OC)c3)C(c3ccc(N(C)C)cc3)C2)cc1 (centres undefined)", "growth": "-32.4% (active)"}
{"compound": "C=C(c1ccc(C(=O)O)cn1)c1cc2c(cc1C)C(C)(C)CCC2(C)C", "growth": "65.4% (inactive)"}
{"compound": "CCCCCCCCn1ccc2cc(NC(=O)Cn3cc(CN4CCOCC4)nn3)ccc21", "growth": "90.4% (inactive)"}
{"compound": "CCCCn1sc(=O)n(Cc2ccc(CNC(=O)OCc3ccc4c(Br)cc(Br)c(O)c4n3)cc2)c1=O", "growth": "-7.12% (active)"}
{"compound": "Cc1[nH]c(C(=O)Nc2ccc(C(N)=O)cc2NC(C)C)c(Cl)c1Cl", "growth": "79.3% (inactive)"}
{"compound": "Cn1cc(C(=O)c2nc(-c3c[nH]c4ccc(Br)cc34)no2)c2cc(Br)ccc21", "growth": "84.2% (inactive)"}
{"compound": "COc1ccc(/C(C)=C(\\c2ccc(OCCN3CCCCCC3)cc2)c2ccc(OC(=O)c3ccccc3)cc2)cc1", "growth": "68.3% (inactive)"}
{"compound": "O=C1/C(=C/c2ccc(Br)cc2)COc2ccc(O)c(O)c21", "growth": "-70.4% (active)"}
{"compound": "CCOC(=O)c1c(C)c2c(n1C)CSc1cc(S(=O)(=O)c3ccccc3)c(=O)[nH]c1-2", "growth": "32% [100 µM] (inactive)"}
{"compound": "CC/C=C1/C(=O)C=C[C@@H]1C/C=C\\CCCC(=O)OC", "growth": "-38.3% (active)"}
{"compound": "C=CCCC(=O)N1C=CC(=O)[C@H](O)[C@@H]1/C=C/c1ccccc1", "growth": "74.1% [100 µM] (inactive)"}
{"compound": "N#C/C(=C\\c1ccc(Br)cc1)c1cc2ccccc2[nH]1", "growth": "85% (inactive)"}
